- Assay target: von Willebrand factor full length (Homo sapiens, UniProt P04275 SEQ:764-2813)
- Experiment summary: filter; DPBS, 0.1 mg/mL BSA, RT
- Particulars: tags: Calbiochem 681300; label: 5'-32P
Result type: Kd
Report the figure along with its unit, number first.

Value of Kd reported for the binder GGCGTGCAGTGCCTATTCTAGGCCGTGCGGTGCCTCCGTCACGCC (ssDNA, 3'-idT) [ARC1027] is 0.8 nM

# credit: patent US20060264369
